Data provenance: patent US20120122924A1

system: recombinant, human, C-terminally-His tagged NAMPT (Homo sapiens, UniProt P43490)
Sequence (P43490 whole entry): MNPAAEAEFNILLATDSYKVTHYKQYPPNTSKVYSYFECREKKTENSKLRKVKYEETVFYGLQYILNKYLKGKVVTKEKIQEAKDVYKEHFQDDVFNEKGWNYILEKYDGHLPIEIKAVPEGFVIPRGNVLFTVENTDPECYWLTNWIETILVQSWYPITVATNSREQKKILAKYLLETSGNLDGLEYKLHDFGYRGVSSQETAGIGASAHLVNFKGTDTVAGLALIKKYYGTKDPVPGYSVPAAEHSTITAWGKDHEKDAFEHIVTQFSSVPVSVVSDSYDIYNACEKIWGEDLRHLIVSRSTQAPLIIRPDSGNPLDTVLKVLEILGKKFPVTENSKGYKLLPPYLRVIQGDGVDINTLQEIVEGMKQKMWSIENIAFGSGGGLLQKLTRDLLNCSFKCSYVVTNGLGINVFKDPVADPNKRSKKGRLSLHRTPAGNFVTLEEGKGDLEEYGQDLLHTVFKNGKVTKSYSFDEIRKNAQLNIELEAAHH
protocol.notes: Time-Resolved Fluorescence Resonance Energy Transfer (TR-FRET) binding assay of NAMPT
measurement.conditions: 6.8 nM NAMPT, 200 nM probe (Oregon Green 488-conjugated APO866), 1 nM Tb-anti-His antibody, 2-3 hours
measurement.label: IC50 (µM)

Consider the worked cases shown below.
compound	output.unit	measurement
O=C(Nc1ccc(C2=CCN(Cc3ccccc3)CC2)cc1)N1CCc2ccccc2C1	µM	0.0805
O=C(NCCc1cccs1)c1ccc(NC(=O)N2CCc3ccccc3C2)cn1	µM	0.309
O=C(Nc1ccc(C(F)(F)F)cc1)N1CCc2ccccc2C1	µM	1.49
CC(C)CCNC(=O)c1ccc(NC(=O)N2CCc3ccc(F)cc3C2)cc1	µM	0.171
CC(C)CS(=O)(=O)N1CC=C(c2ccc(NC(=O)N3CCc4ccccc4C3)cc2)CC1	µM	0.0749
O=C(CCS(=O)(=O)c1ccccc1)Nc1ccc(NC(=O)N2CCc3ccccc3C2)cc1	µM	0.0167
CC(C)CCNC(=O)c1ccc(NC(=O)N2CCc3cnccc3C2)cc1	µM	0.0157
O=C(CCC(=O)c1cccs1)Nc1ccc(NC(=O)N2CCc3ccccc3C2)cc1	µM	0.0153

A = O=C(NCCCc1ccccc1)c1ccc(NC(=O)N2CCc3ccc(F)cc3C2)cc1
B = O=C(CCN1CCCCC1)Nc1ccc(NC(=O)N2CCc3ccccc3C2)cc1
C = O=C(CC1CCCCC1)Nc1ccc(NC(=O)N2CCc3ccccc3C2)cc1
D = CC(C)CCc1nc(-c2ccc(NC(=O)N3CCc4ccccc4C3)cc2)no1
E = CC(C)CC(=O)N1CC=C(c2ccc(NC(=O)N3CCc4ccccc4C3)cc2)CC1
Asked: Sort low-to-high on IC50, please. Would you mind listing the labels in the order asked for?
Given back: C, E, A, B, D

1 = CC(C)CCNC(=O)c1ccc(NC(=O)N2CCc3ccncc3C2)cc1
2 = O=C(NCCCc1ccccc1)c1ccc(NC(=O)N2CCc3cnccc3C2)cc1
3 = CC(C)(C)CC(=O)Nc1ccc(NC(=O)N2CCc3ccccc3C2)cc1
Asked: hey, can you rank those compounds up there by IC50? biggest number first please Answer by naming the labels in the order asked.
Given back: 1, 2, 3
(1: 1.25 µM, 2: 0.015 µM, 3: 0.00275 µM)

###

system: recombinant, human, C-terminally-His tagged NAMPT (Homo sapiens, UniProt P43490)
protocol.notes: Time-Resolved Fluorescence Resonance Energy Transfer (TR-FRET) binding assay of NAMPT
measurement.conditions: 6.8 nM NAMPT, 200 nM probe (Oregon Green 488-conjugated APO866), 1 nM Tb-anti-His antibody, 2-3 hours
measurement.label: IC50 (nM)

smiles.notation	IC50 / nM
O=C(Cc1ccc(NC(=O)N2CCc3ccccc3C2)cc1)NCCc1cccs1	800
CCCCCCC(=O)Nc1ccc(NC(=O)N2CCc3ccccc3C2)cc1	16.8
O=C(CCC(F)(F)F)Nc1ccc(NC(=O)N2CCc3ccccc3C2)cc1	33.2
CC(C)CCNC(=O)c1ccc(NC(=O)N2CCc3ccccc3C2)nc1	29.4

1 = O=C(COCc1ccccc1)Nc1ccc(NC(=O)N2CCc3ccccc3C2)cc1
2 = C[C@@H](O)Cn1cc(-c2ccc(NC(=O)N3CCc4ccccc4C3)cc2)cn1
3 = O=C(NCc1ccccc1)c1ccc(NC(=O)N2CCc3ccccc3C2)cc1
4 = CS(=O)(=O)Nc1cccc2c1CCN(C(=O)Nc1ccc(NC(=O)CC3CCCC3)cc1)C2
5 = O=C(Nc1ccc(NC(=O)N2CCc3ccccc3C2)cc1)c1ccc[nH]1
Asked: hey, can you rank those compounds up there by IC50? biggest number first please Present the labels in the sequence the task asks for.
Given back: 5, 2, 3, 1, 4
(5: 377 nM, 2: 185 nM, 3: 23.7 nM, 1: 10.7 nM, 4: 3 nM)

###

system: recombinant, human, C-terminally-His tagged NAMPT (Homo sapiens, UniProt P43490)
protocol.notes: Time-Resolved Fluorescence Resonance Energy Transfer (TR-FRET) binding assay of NAMPT
measurement.conditions: 6.8 nM NAMPT, 200 nM probe (Oregon Green 488-conjugated APO866), 1 nM Tb-anti-His antibody, 2-3 hours
measurement.label: IC50 (nM)

# example entries with known answers
molecule	output.unit	measurement
Cn1cc(-c2ccc(NC(=O)N3CCc4ccccc4C3)cc2)cn1	nM	1290
CSCCC(=O)Nc1ccc(NC(=O)N2CCc3ccccc3C2)cc1	nM	14.8
CCOC(=O)CCCCCNC(=O)N1CCc2ccccc2C1	nM	1370

I = O=C(CC1CCCC1)Nc1ccc(NC(=O)N2CCc3ccccc3C2)cc1
II = O=C(NCCCc1ccccc1)c1ccc(NC(=O)N2CCc3ccccc3C2)cc1
Asked: I'm curious, which of these has a smaller IC50 number: I or II ? Write down the label attached to your selection.
Given back: I

###

system: recombinant, human, C-terminally-His tagged NAMPT (Homo sapiens)
protocol.notes: Time-Resolved Fluorescence Resonance Energy Transfer (TR-FRET) binding assay of NAMPT
measurement.conditions: 6.8 nM NAMPT, 200 nM probe (Oregon Green 488-conjugated APO866), 1 nM Tb-anti-His antibody, 2-3 hours
measurement.label: IC50 (nM)

molecule	measurement.label	output.unit	measurement
CCCc1nc(-c2ccc(NC(=O)N3CCc4ccccc4C3)cc2)no1	IC50	nM	189
O=C(CN1CCOCC1)Nc1ccc(NC(=O)N2CCc3ccccc3C2)cc1	IC50	nM	69.2
CC(C)CCn1cc(NC(=O)c2ccc(NC(=O)N3CCc4ccccc4C3)cc2)cn1	IC50	nM	43.3
CCCC(=O)N1CC=C(c2ccc(NC(=O)N3CCc4ccccc4C3)cc2)CC1	IC50	nM	13.6
CCCn1cc(-c2ccc(NC(=O)N3CCc4ccccc4C3)cc2)cn1	IC50	nM	103

1 = CN(C)CCC(=O)Nc1ccc(NC(=O)N2CCc3ccccc3C2)cc1
2 = O=C(NCCc1ccccc1)c1ccc(NC(=O)N2CCc3ccccc3C2)cc1
3 = O=C(Cc1ccccn1)Nc1ccc(NC(=O)N2CCc3ccccc3C2)cc1
4 = COC1CCC(C(=O)Nc2ccc(NC(=O)N3CCc4ccccc4C3)cc2)CC1 (stereo not drawn)
Asked: # desc sort on IC50 across 4 molecules Use the labels to give the ranking in the order requested.
Given back: 1, 2, 4, 3
(1: 5840 nM, 2: 97.6 nM, 4: 55 nM, 3: 16 nM)

###

system: recombinant, human, C-terminally-His tagged NAMPT (Homo sapiens)
protocol.notes: Time-Resolved Fluorescence Resonance Energy Transfer (TR-FRET) binding assay of NAMPT
measurement.conditions: 6.8 nM NAMPT, 200 nM probe (Oregon Green 488-conjugated APO866), 1 nM Tb-anti-His antibody, 2-3 hours
pIC50: −log10 of the molar value.
measurement.label: pIC50

These recorded examples may help you get a feel for the data.
smiles.notation	pIC50
CC(C)CCNC(=O)c1ccc(NC(=O)N2CCc3cc(F)ccc3C2)cc1	7.99
CC(C)S(=O)(=O)N1CC=C(c2ccc(NC(=O)N3CCc4ccccc4C3)cc2)CC1	7.86

P = O=C(NCCc1cccs1)c1ccc(NC(=O)N2CCc3ccccc3C2)nc1
Q = O=C(Nc1ccc(C2=CCN(C(=O)c3ccccc3)CC2)cc1)N1CCc2ccccc2C1
Asked: Hello, I am sorting some records. Could you say if P or Q has the smaller pIC50 value? Kindly state the label of the option you pick.
Given back: P

P = O=C(CCCc1ccccc1)Nc1ccc(NC(=O)N2CCc3ccccc3C2)cc1
Q = Cc1cc(C(=O)Nc2ccc(NC(=O)N3CCc4ccccc4C3)cc2)c(C)o1
Asked: Please compare: P and Q . Report which one has the smaller pIC50 value. // return label of chosen record
Given back: Q
(Q: 7.07, P: 7.92)

1 = CS(=O)(=O)N1CC=C(c2ccc(NC(=O)N3CCc4ccccc4C3)cc2)CC1
2 = O=C(Cc1ccccc1)NCCc1ccc(NC(=O)N2CCc3ccccc3C2)cc1
Asked: Higher pIC50 between 1 and 2 ? Please respond with the label that marks your chosen entry.
Given back: 1

###

system: recombinant, human, C-terminally-His tagged NAMPT (Homo sapiens, UniProt P43490)
protocol.notes: Time-Resolved Fluorescence Resonance Energy Transfer (TR-FRET) binding assay of NAMPT
measurement.conditions: 6.8 nM NAMPT, 200 nM probe (Oregon Green 488-conjugated APO866), 1 nM Tb-anti-His antibody, 2-3 hours
Protocol: Determination of the utility of compounds having Formula (I) as binders to and inhibitors of NAMPT was performed using a Time-Resolved Fluorescence Resonance Energy Transfer (TR-FRET) binding assay. Time-Resolved Fluorescence Resonance Energy Transfer (TR-FRET) Binding Assay of NAMPT […]
measurement.label: IC50 (nM)

smiles.notation	output.unit	IC50
O=C(Nc1ccc(/C=C/CCCc2ccccc2)cc1)N1CCc2ccccc2C1	nM	611
COCCOCC(=O)Nc1ccc(NC(=O)N2CCc3ccccc3C2)cc1	nM	86.2

A = O=C(NCCCc1ccccc1)c1ccc(NC(=O)N2CCc3cc(F)ccc3C2)cc1
B = O=C(NCCc1cccs1)c1ccc(NC(=O)N2CCc3ccncc3C2)cc1
C = CC(C)CCn1cc(-c2ccc(NC(=O)N3CCc4ccccc4C3)cc2)cn1
D = O=C(CCc1cccs1)Nc1ccc(NC(=O)N2CCc3ccccc3C2)cc1
E = CCC(C)(C)C(=O)Nc1ccc(NC(=O)N2CCc3ccccc3C2)cc1
Asked: Rank ascending by IC50. Response format: the labels, sorted as the prompt asks.
Given back: A, D, E, C, B
(A: 13.8 nM, D: 40.4 nM, E: 109 nM, C: 298 nM, B: 2110 nM)

1 = CC(C)CCNC(=O)c1ccc(NC(=O)N2CCc3ccccc3C2)cc1
2 = O=C(Nc1ccc(-c2cnn(Cc3ccccc3)c2)cc1)N1CCc2ccccc2C1
Asked: Which gives the smaller IC50 number: 1 or 2 ? Return value: the label identifying the chosen record.
Given back: 1
(1: 16.7 nM, 2: 391 nM)
